Target: UniProt P06239
Sequence (P06239 whole entry): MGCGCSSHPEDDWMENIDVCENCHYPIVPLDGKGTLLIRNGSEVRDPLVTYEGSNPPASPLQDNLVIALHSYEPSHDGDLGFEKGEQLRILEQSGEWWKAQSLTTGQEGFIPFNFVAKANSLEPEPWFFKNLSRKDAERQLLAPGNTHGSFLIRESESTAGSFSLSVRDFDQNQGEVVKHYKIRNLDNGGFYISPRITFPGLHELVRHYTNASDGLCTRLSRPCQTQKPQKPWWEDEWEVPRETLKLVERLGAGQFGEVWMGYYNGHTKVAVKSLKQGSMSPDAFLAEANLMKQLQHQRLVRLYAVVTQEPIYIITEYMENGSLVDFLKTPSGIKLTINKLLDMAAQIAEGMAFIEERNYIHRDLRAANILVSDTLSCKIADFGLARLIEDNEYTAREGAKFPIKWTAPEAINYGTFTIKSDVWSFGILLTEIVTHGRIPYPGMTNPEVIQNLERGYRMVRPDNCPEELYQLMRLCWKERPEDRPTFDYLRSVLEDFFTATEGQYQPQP
Activity calls are given as the source filed them.
Response enum: 1.0 for active, 0.0 for inactive

// below: answered compounds
Cn1cc(-c2ccc(F)c(C(F)(F)F)c2)nc1C1CCN(c2ncnc3[nH]ncc23)CC1 | 0.0
CCCS(=O)(=O)Nc1ccc(F)c(C(=O)c2c[nH]c3ncc(-c4ccc(Cl)cc4)cc23)c1F | 0.0
CCn1c(=O)c(-c2cc[nH]n2)cc2c(C)nc(N)nc21 | 0.0
CC[C@H](Nc1ncnc2[nH]cnc12)c1nc2cccc(F)c2c(=O)n1-c1ccccc1 | 0.0
COC(=O)N[C@@H](C)CNc1nccc(-c2cn(C(C)C)nc2-c2cc(Cl)cc(NS(C)(=O)=O)c2F)n1 | 0.0
COc1cc(CCc2cc(NC(=O)c3ccc(N4C[C@@H](C)N[C@@H](C)C4)cc3)n[nH]2)cc(OC)c1 | 0.0

Task: Please state the recorded outcome for this compound: `CN(C)C(=O)c1cc2cnc(Nc3ccc(N4CCNCC4)cn3)nc2n1C1CCCC1`
Result: 0.0

Task: Please state the recorded outcome for this compound: `CNC(=O)c1cc(Oc2ccc(NC(=O)Nc3ccc(Cl)c(C(F)(F)F)c3)c(F)c2)ccn1`
Result: 0.0

Task: Please state the recorded outcome for this compound: `Cn1ncc(Cl)c1-c1cc(C(=O)N[C@H](CN)Cc2cccc(F)c2)sc1Cl`
Result: 0.0

Task: Please state the recorded outcome for this compound: `N[C@@H]1CCCN(c2c(/C=C3\SC(=O)NC3=O)cccc2-c2ccccc2)C1`
Result: 0.0

Task: Please state the recorded outcome for this compound: `CC(=O)Nc1cccc(-n2c(=O)n(C3CC3)c(=O)c3c(Nc4ccc(I)cc4F)n(C)c(=O)c(C)c32)c1`
Result: 0.0

Task: Please state the recorded outcome for this compound: `CC(C)Nc1cc(-c2c[nH]c(C(=O)N[C@H](CO)c3cccc(Cl)c3)c2)c(Cl)cn1`
Result: 0.0

Task: Please state the recorded outcome for this compound: `C[C@@H]1CN(Cc2ccc(F)cc2)[C@@H](C)CN1C(=O)c1cc2c(C(=O)C(=O)N(C)C)cn(C)c2cc1Cl`
Result: 0.0

Task: Please state the recorded outcome for this compound: `CNC(=O)c1ccc(C)c(-n2c(C)cc(OCc3ccc(F)cc3F)c(Br)c2=O)c1`
Result: 0.0

Task: Please state the recorded outcome for this compound: `Cc1ccc(S(=O)(=O)Nc2nc3ccccc3nc2Nc2ccc3nsnc3c2)cc1`
Result: 0.0

Task: Please state the recorded outcome for this compound: `COc1cc2nccc(Oc3ccc(NC(=O)Nc4cc(C)on4)c(Cl)c3)c2cc1OC`
Result: 1.0
